Sourced from patent US20250002565A1

Below, each entry is listed alongside its reported ELISA OD.
target: T1, 15-mer peptide LGIWGCSGKLICTTT (SEQ ID NO:1) (HIV, not fully specified; cysteine pairing not given here); assay: indirect ELISA; 15-mer peptide coated 1 ug/ml in DTT; antibody at 37 ng/ml
T1 construct: also called U1731DB060-1; U173DB060-1
T1 peptide: LGIWGCSGKLICTTT
No end group written: not given here.
test.readout: ELISA OD (OD)

[
  {
    "binder": "HIV-binding peptide #10Q (antibody, V domains shown, also called antibody#10-5Q; U1205DB020-10) VH: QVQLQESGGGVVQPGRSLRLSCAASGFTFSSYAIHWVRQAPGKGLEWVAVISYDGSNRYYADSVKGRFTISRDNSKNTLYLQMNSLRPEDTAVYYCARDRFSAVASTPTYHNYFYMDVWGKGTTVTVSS",
    "observed": 0.209
  },
  {
    "binder": "HIV-binding peptide #2 (antibody, human IgG1, kappa, V domains shown, Recombinant, fully human immunoglobulin; also called U1205DB020-2) VH: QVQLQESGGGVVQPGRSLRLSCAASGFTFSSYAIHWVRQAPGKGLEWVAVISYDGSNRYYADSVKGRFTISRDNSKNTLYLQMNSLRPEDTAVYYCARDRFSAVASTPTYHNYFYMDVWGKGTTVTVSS VL: DIQMTQSPSSLSASVGDRVTITCQASQDINNYLAWYQQKPGQAPRLLIYDASNLETGVPSRFSGSGSGTDFTLTISSLQPEDLATYYCQQYDNTPYTFGQGTKLEIKR",
    "observed": 0.074
  }
]
